Values from patent US20260297070A1

- Tested On: human Werner helicase (WRN-BV08, Uniprot Q14191, amino acids 517-1235 with L1074F point mutation) (Homo sapiens, UniProt Q14191, L1074F)
- Construct: Uniprot Q14191, amino acids 517-1235 with L1074F point mutation; TEV-cleavable 8×His (C, cleaved yes); made in house; host or cells: Sf9 insect cells (baculovirus)
- Sequence (Q14191 with tags, fused parts or gaps L1074F limits assumed): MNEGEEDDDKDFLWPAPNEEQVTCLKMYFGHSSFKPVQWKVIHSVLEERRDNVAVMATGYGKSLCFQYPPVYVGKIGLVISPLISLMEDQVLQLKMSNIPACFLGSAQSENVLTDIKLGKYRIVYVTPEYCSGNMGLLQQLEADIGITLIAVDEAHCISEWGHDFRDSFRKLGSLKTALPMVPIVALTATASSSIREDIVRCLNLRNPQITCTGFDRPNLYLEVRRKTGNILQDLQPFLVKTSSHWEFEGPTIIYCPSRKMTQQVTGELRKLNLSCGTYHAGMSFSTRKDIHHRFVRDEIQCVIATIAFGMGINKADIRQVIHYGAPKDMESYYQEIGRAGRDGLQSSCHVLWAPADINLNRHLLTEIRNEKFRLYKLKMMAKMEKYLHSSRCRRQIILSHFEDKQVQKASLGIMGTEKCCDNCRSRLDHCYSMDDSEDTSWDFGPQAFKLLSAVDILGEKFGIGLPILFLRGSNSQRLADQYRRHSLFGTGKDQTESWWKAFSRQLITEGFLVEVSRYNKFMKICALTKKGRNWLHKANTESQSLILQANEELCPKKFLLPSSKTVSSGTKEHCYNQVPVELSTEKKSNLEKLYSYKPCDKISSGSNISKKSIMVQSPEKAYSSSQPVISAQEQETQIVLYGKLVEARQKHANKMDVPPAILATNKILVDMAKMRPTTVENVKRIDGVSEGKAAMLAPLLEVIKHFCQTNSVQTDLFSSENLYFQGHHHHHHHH
- Experiment Description: WRN (BV08) ADP-Glo Assay
- Format: biochemical
- Conditions: 0.15 nM WRN, 5 μM ATP, 0.1 nM DNA duplex, 15 min preincubation, 60 min at 25° C., pH 7.5, 1% DMSO; read-out: ADP-Glo_hWRN_IC50
Measure: IC50

1) O=C(CC1CCC(c2ccccc2)CC1)N(Cc1ccncc1)C1C=CS(=O)(=O)C1 (stereo not shown) ... > 50 µM
2) O=C(CCc1c[nH]c2cc(Cl)ccc12)N(Cc1ccncc1)C1C=CS(=O)(=O)C1 (stereo not shown) ... 10 to 50 µM
3) COc1cc(CN(C(=O)C(OCC#N)c2ccc(-c3ccc(F)c(F)c3)cc2F)[C@@H]2C=CS(=O)(=O)C2)ccn1 (single isomer, unassigned) [I-692] ... 10 to 50 µM
4) COc1cc(CN(C(=O)Cn2cc3cc(C(F)(F)F)ccc3n2)[C@@H]2C=CS(=O)(=O)C2)ccn1 ... 0.5 to 5 µM
5) COc1cc(CN(C(=O)C(c2ccc(-c3ccc(F)c(F)c3)cc2F)n2cc(OC(F)F)cn2)[C@@H]2C=CS(=O)(=O)C2)ccn1 (single isomer, unassigned) [I-685] ... < 0.5 µM
6) CC(C)c1ccc(CC(=O)N(Cc2ccncc2)C2C=CS(=O)(=O)C2)cc1 (stereo not shown) ... 0.5 to 5 µM
7) COc1cc(CN(C(=O)C(C(=O)N(C)C)c2ccc(-c3ccc(F)cc3)cc2F)C2C=CS(=O)(=O)C2)ccn1 (single isomer, unassigned) [I-267] ... 10 to 50 µM

====

Entries and their pIC50
- Tested On: human Werner helicase (WRN-BV08, Uniprot Q14191, amino acids 517-1235 with L1074F point mutation) (Homo sapiens, UniProt Q14191, L1074F)
- Construct: Uniprot Q14191, amino acids 517-1235 with L1074F point mutation; TEV-cleavable 8×His (C, cleaved yes); made in house; host or cells: Sf9 insect cells (baculovirus)
- Experiment Description: WRN (BV08) ADP-Glo Assay
- Format: biochemical
- Conditions: 0.15 nM WRN, 5 μM ATP, 0.1 nM DNA duplex, 15 min preincubation, 60 min at 25° C., pH 7.5, 1% DMSO; read-out: ADP-Glo_hWRN_IC50
pIC50: −log10 of the molar value.
Measure: pIC50

1. CN(C)C(=O)C(C(=O)N(Cc1ccncc1)C1C=CS(=O)(=O)C1)c1ccc(-c2ccc(F)cc2)cc1 (stereo not shown) [I-104] ... 5.30 to 6.30
2. C#CCCCC(=O)N1CCN(C(=O)c2ccc(CN(C(=O)Cc3ccc(-n4cccc4)cc3F)C3C=CS(=O)(=O)C3)cc2)CC1 (stereo not shown) ... 5.00 to 5.30
3. COC(C(=O)N(Cc1nc(C(C)(C)O)cs1)C1C=CS(=O)(=O)C1)c1ccc(-c2ccc(F)c(F)c2)cc1F (single isomer, unassigned) [I-747] ... 5.00 to 5.30
4. CN(C)C(=O)C(C(=O)N(Cc1ccnc(C(C)(C)O)c1)C1C=CS(=O)(=O)C1)c1ccc(S(F)(F)(F)(F)F)cc1 (stereo not shown) ... 5.30 to 6.30

====

Entries and their IC50
- Tested On: human Werner helicase (WRN-BV08, Uniprot Q14191, amino acids 517-1235 with L1074F point mutation) (Homo sapiens, UniProt Q14191, L1074F)
- Construct: Uniprot Q14191, amino acids 517-1235 with L1074F point mutation; TEV-cleavable 8×His (C, cleaved yes); made in house; host or cells: Sf9 insect cells (baculovirus)
- Experiment Description: WRN (BV08) ADP-Glo Assay
- Format: biochemical
- Conditions: 0.15 nM WRN, 5 μM ATP, 0.1 nM DNA duplex, 15 min preincubation, 60 min at 25° C., pH 7.5, 1% DMSO; read-out: ADP-Glo_hWRN_IC50
Measure: IC50

1. COc1cc(CN(C(=O)CCc2ccc(S(F)(F)(F)(F)F)cc2)C2C=CS(=O)(=O)C2)ccn1 (centres unmarked) ... 10 to 50 µM
2. O=C(Cn1cc(-c2ccccc2)cn1)N(Cc1ccncc1)C1C=CS(=O)(=O)C1 (centres unmarked) [I-186] ... 0.5 to 5 µM
3. O=C(CN1CCN(c2ccccc2)CC1)N(Cc1ccncc1)C1C=CS(=O)(=O)C1 (centres unmarked) ... > 50 µM
4. O=C(Cc1ccc(-n2cccc2)cc1)N(Cc1nc2c(s1)COCC2)C1C=CS(=O)(=O)C1 (centres unmarked) ... 0.5 to 5 µM
5. O=C(C1CC(c2ccccc2)O1)N(Cc1ccncc1)C1C=CS(=O)(=O)C1 (centres unmarked) ... > 50 µM
6. O=C(Cc1ccc(CC(F)(F)F)cc1)N(Cc1ccncc1)C1C=CS(=O)(=O)C1 (centres unmarked) ... 5 to 10 µM
7. CC(C)(O)c1cc(CN(C(=O)C(F)(F)c2ccc(-c3ccc(F)c(F)c3)cc2F)[C@@H]2C=CS(=O)(=O)C2)ccn1 ... < 0.5 µM
8. O=C(Cc1ccc(C(F)(F)F)nc1)N(Cc1ccncc1)C1C=CS(=O)(=O)C1 (centres unmarked) ... 10 to 50 µM

====

- Tested On: human Werner helicase (WRN-BV08, Uniprot Q14191, amino acids 517-1235 with L1074F point mutation) (Homo sapiens, UniProt Q14191, L1074F)
- Construct: Uniprot Q14191, amino acids 517-1235 with L1074F point mutation; TEV-cleavable 8×His (C, cleaved yes); made in house; host or cells: Sf9 insect cells (baculovirus)
- Experiment Description: WRN (BV08) ADP-Glo Assay
- Assay type: biochemical
- Conditions: 0.15 nM WRN, 5 μM ATP, 0.1 nM DNA duplex, 15 min preincubation, 60 min at 25° C., pH 7.5, 1% DMSO; read-out: ADP-Glo_hWRN_IC50
Measure: IC50

1. CC(C(=O)N(Cc1ccncc1)C1C=CS(=O)(=O)C1)c1ccc(-c2ccc(F)cc2)cc1 (stereo not shown) [I-266] ... 5 to 10 µM
2. N#Cc1cccn1-c1ccc(CC(=O)N(Cc2ccncc2)C2C=CS(=O)(=O)C2)cc1 (stereo not shown) [I-272] ... 5 to 10 µM
3. COc1cnn(C(C(=O)N(Cc2ccnc(OC)c2)[C@@H]2C=CS(=O)(=O)C2)c2ccc(-c3ccc(F)c(F)c3)cc2F)c1 (stereo partly shown) [I-748] ... < 0.5 µM
4. COc1cc(CN(C(=O)C(OC2COC2)c2ccc(-c3ccc(F)c(F)c3)cc2F)[C@@H]2C=CS(=O)(=O)C2)ccn1 (single isomer, unassigned) [I-740] ... 0.5 to 5 µM
5. O=C(Cc1ccc(N2CC(F)(F)C2)cc1)N(Cc1ccncc1)C1C=CS(=O)(=O)C1 (stereo not shown) [I-482] ... > 50 µM
6. COC(C(=O)N(Cc1ccnc(C(C)(C)O)c1)C1C=CS(=O)(=O)C1)c1ccc(S(F)(F)(F)(F)F)cc1 (single isomer, unassigned) [I-665] ... 10 to 50 µM
7. CS(=O)(=O)Nc1cccc(CN(C(=O)Cc2ccc(-n3cccc3)cc2)C2C=CS(=O)(=O)C2)c1 (stereo not shown) [I-344] ... 10 to 50 µM

====

Entries and their IC50
- Tested On: human Werner helicase (WRN-BV08, Uniprot Q14191, amino acids 517-1235 with L1074F point mutation) (Homo sapiens, UniProt Q14191, L1074F)
- Construct: Uniprot Q14191, amino acids 517-1235 with L1074F point mutation; TEV-cleavable 8×His (C, cleaved yes); made in house; host or cells: Sf9 insect cells (baculovirus)
- Experiment Description: WRN (BV08) ADP-Glo Assay
- Format: biochemical
- Conditions: 0.15 nM WRN, 5 μM ATP, 0.1 nM DNA duplex, 15 min preincubation, 60 min at 25° C., pH 7.5, 1% DMSO; read-out: ADP-Glo_hWRN_IC50
- Excerpt: Example 2: WRN (BV08) ADP-Glo Assay Protocol Bovine skin gelatin (BSG), dimethyl sulfoxide (DMSO), Pluronic F-127 and Tris(2-carboxyethyl)phosphine hydrochloride solution (TCEP) were purchased from Sigma-Aldrich at the highest level of purity possible. […] The reaction was stopped by the addition of the ADP-Glo Kit components (Promega) as directed and the relative luminescence units (RLU) were read on an Envision 2104 (Perkin Elmer). […]
Measure: IC50

1) O=C(Cc1ccc(-n2cccc2)cc1)N(Cc1cccc(O)c1)C1C=CS(=O)(=O)C1 (stereo not drawn) ... 10 to 50 µM
2) COc1cc(CN(C(=O)Cc2ccc(S(F)(F)(F)(F)F)cc2)C2C=CS(=O)(=O)C2)cc(OC)n1 (stereo not drawn) ... 0.5 to 5 µM
3) O=C(Cc1ccc(S(=O)(=O)C(F)F)cc1)N(Cc1ccncc1)C1C=CS(=O)(=O)C1 (stereo not drawn) ... 10 to 50 µM
4) O=C(CCc1nc(-c2ccccc2F)no1)N(Cc1ccncc1)C1C=CS(=O)(=O)C1 (stereo not drawn) ... > 50 µM
5) COc1cc(CN(C(=O)C(OCCS(C)(=O)=O)c2ccc(-c3ccc(F)c(F)c3)cc2F)[C@@H]2C=CS(=O)(=O)C2)ccn1 (single isomer, unassigned) [I-702] ... 0.5 to 5 µM
6) Cc1cccn1-c1ccc(CC(=O)N(Cc2ccc(Br)cc2)C2C=CS(=O)(=O)C2)c(F)c1 (stereo not drawn) ... 0.5 to 5 µM
7) O=C(Cc1cc(-c2ccccc2)on1)N(Cc1ccncc1)C1C=CS(=O)(=O)C1 (stereo not drawn) ... 10 to 50 µM
8) Cc1ccn(-c2ccc(CC(=O)N(Cc3ccncc3)C3C=CS(=O)(=O)C3)cc2)c1 (stereo not drawn) ... 10 to 50 µM
9) CNC(=O)C(C(=O)N(Cc1ccnc(OC)c1)[C@@H]1C=CS(=O)(=O)C1)c1ccc(-c2ccc(F)c(F)c2)cc1F (single isomer, unassigned) [I-693] ... < 0.5 µM
10) O=C1CCCN1c1ccc(CC(=O)N(Cc2ccncc2)C2C=CS(=O)(=O)C2)cc1 (stereo not drawn) ... > 50 µM
11) COc1cc(CN(C(=O)Cc2ccc(-n3c(C)ccc3C)cc2F)C2C=CS(=O)(=O)C2)ccn1 (stereo not drawn) ... 0.5 to 5 µM
12) O=C(Cc1ccc2c(c1)CCCC2)N(Cc1ccncc1)C1C=CS(=O)(=O)C1 (stereo not drawn) ... 10 to 50 µM
13) O=C(C1Cc2ccc(Cl)cc21)N(Cc1ccncc1)C1C=CS(=O)(=O)C1 (stereo not drawn) ... > 50 µM
14) O=C(Cc1ccc(-n2cccc2)cc1)N(Cc1ccccc1)C1C=CS(=O)(=O)C1 (single isomer, unassigned) [I-488] ... > 50 µM
15) CS(=O)(=O)Nc1ccc(CN(C(=O)Cc2ccc(-n3cccc3)cc2)C2C=CS(=O)(=O)C2)cc1 (stereo not drawn) ... 10 to 50 µM
16) CC(C)(O)c1cc(CN(C(=O)c2c[nH]c3cc(-c4ccc(F)cc4)ccc23)C2C=CS(=O)(=O)C2)ccn1 (stereo not drawn) ... > 50 µM
17) O=C(Cc1csc(C2CCCC2)n1)N(Cc1ccncc1)C1C=CS(=O)(=O)C1 (stereo not drawn) ... > 50 µM
18) CC(C)(O)c1cc(CN(C(=O)C2Cc3cc(S(F)(F)(F)(F)F)ccc3O2)[C@@H]2C=CS(=O)(=O)C2)ccn1 (single isomer, unassigned) ... < 0.5 µM
19) COc1cc(CN(C(=O)C(c2ccc(-c3ccc(F)c(F)c3)cc2F)n2cccn2)[C@@H]2C=CS(=O)(=O)C2)ccn1 (single isomer, unassigned) [I-671] ... < 0.5 µM
20) O=C(Cc1ccc(-n2cccc2)cc1)N(C1C=CS(=O)(=O)C1)C(CO)c1ccccc1 (stereo not drawn) ... > 50 µM
21) O=C(O)c1cccc(CN(C(=O)Cc2ccc(-n3cccc3)cc2)C2C=CS(=O)(=O)C2)c1 (stereo not drawn) ... 10 to 50 µM
22) NC(=O)c1cccc(CN(C(=O)Cc2ccc(-n3cccc3)cc2)C2C=CS(=O)(=O)C2)c1 (stereo not drawn) ... 10 to 50 µM
23) O=C(/C=C/c1ccccc1)N(Cc1ccncc1)C1C=CS(=O)(=O)C1 (stereo not drawn) ... > 50 µM
24) CC(C)Oc1ccc(CC(=O)N(Cc2ccncc2)C2C=CS(=O)(=O)C2)cc1 (stereo not drawn) ... 10 to 50 µM
25) O=C(Cn1cc(-c2cc(F)c(F)c(F)c2)cn1)N(Cc1ccc(Cc2ccncc2)cc1)C1C=CS(=O)(=O)C1 (stereo not drawn) ... < 0.5 µM
26) O=C(Cc1ccc(-c2ccc(F)cc2)cc1F)N(Cc1nc(C2CC2)cs1)C1C=CS(=O)(=O)C1 (stereo not drawn) ... < 0.5 µM
27) COc1cc(CN(C(=O)C(OC)c2ccc(S(F)(F)(F)(F)F)cc2)C2C=CS(=O)(=O)C2)ccn1 (stereo not drawn) ... 0.5 to 5 µM
28) COc1cc(CN(C(=O)C(c2ccc(-c3ccc(F)c(F)c3)cc2F)n2cc(C#N)cn2)[C@@H]2C=CS(=O)(=O)C2)ccn1 (single isomer, unassigned) [I-712] ... 0.5 to 5 µM
29) CN(C)c1cc(CN(C(=O)Cc2ccc(S(F)(F)(F)(F)F)cc2)C2C=CS(=O)(=O)C2)ccn1 (stereo not drawn) ... 0.5 to 5 µM
30) COc1cc(CN(C(=O)[C@H](C(=O)N(C)C)c2ccc(-c3ccc(F)cc3)cc2F)[C@@H]2C=CS(=O)(=O)C2)ccn1 ... < 0.5 µM
